system: HOP-62 NSCLC; assay: NCI-60 one-dose screen, 48 h (100 = growth as untreated, 0 = no growth, -100 = all killed); settings: 10 µM unless noted
Compounds without any hit were thinned out: in the full panel of roughly 83,000, 20% have a hit.
The reader will find reported growth values listed item by item below.
Write it as a number; the unit % goes unstated.

> print(dat)
                                   molecule  target.system  readout.value
1  COC(=O)c1oc2c(C(=O)/C=C/c3ccc(OC)cc3)c(OCCCN3CCCCC3)ccc2c1C   HOP-62 NSCLC           1.98
2  O=C1CCC23OC(C(O)c4ccccc4N12)C1C(Br)=NOC13 (stereo not drawn)   HOP-62 NSCLC           96.8
3  COc1ccccc1C(=O)/C=C/c1cc2cccc(OC)c2[nH]c1=O   HOP-62 NSCLC          -8.85
4  COc1cc2c(cc1OCCCOc1cc3c(cc1OC)C(=O)N1CC(F)(F)C[C@H]1C=N3)N=C[C@@H]1CC(F)(F)CN1C2=O   HOP-62 NSCLC           11.1
5  O=C(Nc1cc(Br)ccn1)c1cc2cc(Nc3nc(-c4ccccc4)nc4ccccc34)ccc2oc1=O   HOP-62 NSCLC            103

For the molecule CC(C)Cc1cc(CNC(=O)C2[C@H]3CN(C(=O)c4ccccc4)C[C@@H]23)nn1-c1ccccc1 (stereo partly drawn) , report growth.
83.4

For the molecule C=CCn1c(SCC(=O)Nc2ccc(C(=O)/C=C/c3ccc(Cl)cc3)cc2)nnc1-c1cc(OC)c(OC)c(OC)c1 , report growth.
98.3

For the molecule CN(C)[C@@H]1C(=O)C(C(N)=O)=C(O)[C@@]2(O)C(=O)C3=C(O)c4c(O)cc(CN5CCc6ccccc6C5)c(Cl)c4C[C@H]3C[C@@H]12 , report growth.
-85.4
